What % Activation Agonist CB1 was measured for each of the following?
measurement.target: CB1 receptor (Homo sapiens)
Sequence (P21554 whole entry): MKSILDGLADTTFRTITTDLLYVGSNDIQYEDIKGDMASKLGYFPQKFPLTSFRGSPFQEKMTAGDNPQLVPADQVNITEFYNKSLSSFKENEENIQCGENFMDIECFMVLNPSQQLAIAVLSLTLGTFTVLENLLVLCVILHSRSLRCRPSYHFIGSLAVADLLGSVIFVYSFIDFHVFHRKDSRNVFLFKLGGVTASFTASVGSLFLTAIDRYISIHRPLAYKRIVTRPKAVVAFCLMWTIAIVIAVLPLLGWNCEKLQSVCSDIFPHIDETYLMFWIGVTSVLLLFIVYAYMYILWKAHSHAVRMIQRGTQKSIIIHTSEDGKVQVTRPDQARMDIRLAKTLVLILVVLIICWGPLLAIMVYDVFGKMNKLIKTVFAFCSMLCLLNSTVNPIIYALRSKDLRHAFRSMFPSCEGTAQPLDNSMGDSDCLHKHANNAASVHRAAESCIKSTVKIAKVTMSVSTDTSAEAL
experimental.details: FLIPR calcium flux assay, agonist format, CB1
Format: cell-based
condition.summary: 1 μM, Emax of reference agonist CP-55,940 as 100%
Numbers only, in %.

{"compound": "CC(C(=O)N(C)CC[C@H](Oc1ccc(C(F)(F)F)cc1)c1ccccc1)c1ccc(CC2CCCC2=O)cc1 (some centres unmarked) [Compound 29b]", "% Activation Agonist CB1 / %": "−0.2"}

Provide % Activation Agonist CB1 values for the following items, in order.
1. O=C(Cc1nc(-c2ccc(C(F)(F)F)cc2)no1)NCC[C@@H](Oc1ccc(C(F)(F)F)cc1)c1ccccc1
2. CN(Cc1ccccc1)C1CCN(C(C(=O)NCCOc2ccc(C(F)(F)F)cc2)c2nc(-c3ccc(C(F)(F)F)cc3)no2)CC1 (centres unmarked)
3. C[C@H]1CCN(C(C(=O)NCC[C@@H](Oc2ccc(C(F)(F)F)cc2)c2ccccc2)c2nc(-c3ccc(C(F)(F)F)cc3)no2)C[C@@H]1COc1ccc(C(F)(F)F)cc1 (some centres unmarked)
4. CC(C)Cc1ccc(CC(=O)N(C)CC[C@H](Oc2ccc(C(F)(F)F)cc2)c2ccccc2)cc1 [Compound 32b]
5. O=C(NCC[C@@H](Oc1ccc(C(F)(F)F)cc1)c1ccccc1)C(c1nc(-c2ccc(C(F)(F)F)cc2)no1)N1CCC[C@@H](COc2ccc(C(F)(F)F)cc2)C1 (some centres unmarked)

[7.8, 1.6, 8.6, 2.1, 0.5]

Provide % Activation Agonist CB1 values for the following items, in order.
1. CC(C)Cc1ccc(C2(C(=O)N(C)CC[C@H](Oc3ccc(C(F)(F)F)cc3)c3ccccc3)CCC2)cc1 [Compound 30b]
2. C[C@H]1CCN(C(C(=O)NCCOc2ccc(C(F)(F)F)cc2)c2nc(-c3ccc(C(F)(F)F)cc3)no2)C[C@@H]1COc1ccc(C(F)(F)F)cc1 (some centres unmarked)

−0.8
1.9

---

measurement.target: GLP-1 receptor (Homo sapiens, UniProt P43220)
Sequence (P43220 24-463): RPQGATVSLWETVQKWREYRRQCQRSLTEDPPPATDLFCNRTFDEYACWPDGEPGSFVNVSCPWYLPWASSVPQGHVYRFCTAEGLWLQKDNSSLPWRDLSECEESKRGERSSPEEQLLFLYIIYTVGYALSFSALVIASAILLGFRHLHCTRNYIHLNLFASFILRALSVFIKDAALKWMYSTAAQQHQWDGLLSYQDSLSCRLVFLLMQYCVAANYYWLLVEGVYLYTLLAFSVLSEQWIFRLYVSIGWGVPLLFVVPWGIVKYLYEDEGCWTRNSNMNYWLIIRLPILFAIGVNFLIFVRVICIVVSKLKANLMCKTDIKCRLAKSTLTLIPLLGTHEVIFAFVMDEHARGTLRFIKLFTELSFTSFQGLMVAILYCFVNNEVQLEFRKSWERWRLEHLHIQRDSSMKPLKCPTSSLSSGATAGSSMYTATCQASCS
experimental.details: FLIPR calcium flux assay, antagonist format, GLP-1
Assay type: cell-based
condition.summary: 1 μM, reference ligand Glucagon at EC80 as 0% inhibition
value.kind: % Inhibition Antagonist GLP-1 (%)
Give bare numbers, in %.

{"molecule": "CN(Cc1ccccc1)C1CCN(C(C(=O)NCCOc2ccc(C(F)(F)F)cc2)c2nc(-c3ccc(C(F)(F)F)cc3)no2)CC1 (stereo not shown) [Compound 24]", "quantitative.result": "−1.6"}
{"molecule": "CC(C(=O)N(C)CC[C@H](Oc1ccc(C(F)(F)F)cc1)c1ccccc1)c1ccc(CC2CCCC2=O)cc1 (stereo partly shown) [Compound 29b]", "quantitative.result": 0.0}
{"molecule": "CC(C)Cc1ccc(CC(=O)N(C)CC[C@H](Oc2ccc(C(F)(F)F)cc2)c2ccccc2)cc1 [Compound 32b]", "quantitative.result": "−0.8"}
{"molecule": "CC(C)Cc1ccc(C2(C(=O)N(C)CC[C@H](Oc3ccc(C(F)(F)F)cc3)c3ccccc3)CCC2)cc1 [Compound 30b]", "quantitative.result": 9.7}

Provide % Inhibition Antagonist GLP-1 values for the following items, in order.
1. CC(C(=O)N(C)CC[C@@H](Oc1ccc(C(F)(F)F)cc1)c1ccccc1)c1ccc(C(F)(F)F)cc1 (stereo partly shown) [Compound 33a]
2. CC(C)Cc1ccc(C2(C(=O)N(C)CC[C@@H](Oc3ccc(C(F)(F)F)cc3)c3ccccc3)CCC2)cc1 [Compound 30a]
3. C[C@H]1CCN(C(C(=O)NCCOc2ccc(C(F)(F)F)cc2)c2nc(-c3ccc(C(F)(F)F)cc3)no2)C[C@@H]1COc1ccc(C(F)(F)F)cc1 (stereo partly shown) [Compound 20]

1: 11.4; 2: 7.5; 3: −14.4
